- system: Histone-arginine methyltransferase CARM1 (Homo sapiens)
- Sequence (Q86X55 whole entry): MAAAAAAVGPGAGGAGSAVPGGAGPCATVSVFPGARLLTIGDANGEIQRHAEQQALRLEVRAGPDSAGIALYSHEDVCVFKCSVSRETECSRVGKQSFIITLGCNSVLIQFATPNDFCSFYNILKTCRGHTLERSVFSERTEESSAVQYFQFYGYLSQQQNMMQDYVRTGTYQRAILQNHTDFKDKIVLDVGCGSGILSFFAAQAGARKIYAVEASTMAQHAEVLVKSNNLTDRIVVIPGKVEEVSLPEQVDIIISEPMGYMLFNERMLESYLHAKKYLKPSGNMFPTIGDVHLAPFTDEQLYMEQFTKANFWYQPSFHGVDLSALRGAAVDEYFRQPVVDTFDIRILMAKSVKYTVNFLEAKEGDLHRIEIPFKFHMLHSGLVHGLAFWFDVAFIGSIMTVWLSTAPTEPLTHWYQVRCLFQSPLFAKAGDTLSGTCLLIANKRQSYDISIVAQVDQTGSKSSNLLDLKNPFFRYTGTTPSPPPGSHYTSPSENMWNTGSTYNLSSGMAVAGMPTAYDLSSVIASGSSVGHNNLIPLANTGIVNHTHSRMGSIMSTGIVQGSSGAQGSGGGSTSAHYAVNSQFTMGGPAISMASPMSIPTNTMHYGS
pIC50: −log10 of the molar value.

# item-smiles, system, pIC50
records = [
    ("Cc1cc(C)cc([C@@H]2c3cc(C)ccc3NC(=O)CN2C(=O)c2ccc(Br)s2)c1", "Histone-arginine methyltransferase CARM1 (Homo sapiens)", "< 5.00"),
]
